biological target: T1, human BR3 extracellular domain (human, UniProt Q96RJ3 1-61); test: SPR, IgG on chip, BR3 ECD in solution
T1 construct: biotinylated where used as tracer; also called hBR3-ECD; BR3-ECD
Could you please report measured log10(koff) for the items listed next?
The base-10 logarithm of koff, taken with koff in s⁻¹, is what appears here.

Fill in: log10(koff) of mV3-46 IgG (antibody, V domains shown, IgG on chip) VH: EVQLVESGGGLVQPGGSLRLSCAASGFTISNSSIHWVRQAPGKGLEWVAWVLPSVGFTDYADSVKGRFTISADTSKNTAYLQMNSLRAEDTAVYYCARRVCYNRLGVCAGGMDYWGQGTLVTVSS VL: DIQMTQSPSSLSASVGDRVTITCRASQDVSTAVAWYQQKPGKAPKLLIYSASFLYSGVPSRFSGSGSGTDFTLTISSLQPEDFATYYCQQSQISPPTFGQGTKVEIKR is ___ -4.14

Fill in: log10(koff) of murine monoclonal antibody 2.1 (antibody, V domains shown, mouse hybridoma IgG; also called 2.1 IgG; mu2.1) VH: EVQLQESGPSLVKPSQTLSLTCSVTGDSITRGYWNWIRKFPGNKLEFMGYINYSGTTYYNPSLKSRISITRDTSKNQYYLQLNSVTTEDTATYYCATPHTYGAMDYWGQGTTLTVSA VL: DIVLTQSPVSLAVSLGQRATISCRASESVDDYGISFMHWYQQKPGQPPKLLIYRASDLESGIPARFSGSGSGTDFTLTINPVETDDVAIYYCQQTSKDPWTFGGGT is ___ -4.77

Fill in: log10(koff) of V3-1m (antibody, mouse IgG2a, V domains shown, also called mV3-1; V3-1 (IgG)) VH: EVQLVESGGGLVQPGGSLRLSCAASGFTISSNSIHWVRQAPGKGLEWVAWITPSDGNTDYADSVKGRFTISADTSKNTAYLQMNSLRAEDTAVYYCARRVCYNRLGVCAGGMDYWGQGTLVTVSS VL: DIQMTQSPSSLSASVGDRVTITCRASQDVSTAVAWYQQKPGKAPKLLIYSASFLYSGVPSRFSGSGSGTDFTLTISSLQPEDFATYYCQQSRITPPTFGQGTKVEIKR is ___ -3.77

Fill in: log10(koff) of Hu9.1-88 IgG (antibody, V domains shown, humanized IgG; also called h9.1-88) VH: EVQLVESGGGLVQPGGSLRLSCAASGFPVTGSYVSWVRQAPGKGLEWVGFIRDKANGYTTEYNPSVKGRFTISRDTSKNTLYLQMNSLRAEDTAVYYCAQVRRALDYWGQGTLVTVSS VL: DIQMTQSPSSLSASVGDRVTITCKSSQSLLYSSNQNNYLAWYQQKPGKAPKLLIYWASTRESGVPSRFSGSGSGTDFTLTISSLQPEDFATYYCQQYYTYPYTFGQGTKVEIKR is ___ -3.03

Fill in: log10(koff) of Hu2.1-30 IgG (antibody, V domains shown, humanized IgG; also called h2.1-30) VH: EVQLVESGGGLVQPGGSLRLSCAASGDSITRGYWNWVRQAPGKGLEWVGYINYSGTTYYNPSLKSRFTISRDTSKNTFYLQMNSLRAEDTAVYYCANLNYYGAMDYWGQGTLVTVSS VL: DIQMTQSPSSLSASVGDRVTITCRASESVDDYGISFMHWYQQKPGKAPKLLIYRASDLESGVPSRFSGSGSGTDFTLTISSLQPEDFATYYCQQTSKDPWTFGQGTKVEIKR is ___ -4.12

Fill in: log10(koff) of mV3-46s IgG (antibody, V domains shown, IgG on chip) VH: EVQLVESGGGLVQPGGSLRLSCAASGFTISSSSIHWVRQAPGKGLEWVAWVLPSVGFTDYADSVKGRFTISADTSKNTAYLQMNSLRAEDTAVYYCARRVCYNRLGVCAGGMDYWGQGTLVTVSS VL: DIQMTQSPSSLSASVGDRVTITCRASQDVSTAVAWYQQKPGKAPKLLIYSASFLYSGVPSRFSGSGSGTDFTLTISSLQPEDFATYYCQQSQISPPTFGQGTKVEIKR is ___ -4.50

Fill in: log10(koff) of Hu2.1-46 IgG (antibody, V domains shown, humanized IgG; also called h2.1-46) VH: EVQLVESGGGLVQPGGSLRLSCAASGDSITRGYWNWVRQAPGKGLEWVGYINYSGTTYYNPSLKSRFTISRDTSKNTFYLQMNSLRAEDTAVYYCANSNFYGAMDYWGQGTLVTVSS VL: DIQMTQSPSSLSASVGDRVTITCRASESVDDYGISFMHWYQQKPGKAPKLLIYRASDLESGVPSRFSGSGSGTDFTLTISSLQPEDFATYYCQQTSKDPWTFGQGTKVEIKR is ___ -3.36

Attribution: patent US20100280227A1
